system: Platelet; experiment: Antiplatelet activity in Wistar rat platelet rich plasma assessed as inhibition of ADP-induced platelet aggregation at 100 uM pretreated for 1 min followed by ADP addition by turbidimetric method relative to control; type: functional
attribute_measured: inhibition at 100 µM

INSERT INTO assay_data (smiles_structure, attribute_measured, test_result) VALUES
  ('O=C(N/N=C/c1ccc2no[n+]([O-])c2c1)c1ccccc1N1C(=O)c2ccccc2C1=O', 'inhibition at 100 µM', '0%'),
  ('O=C(N/N=C/c1ccc2no[n+]([O-])c2c1)c1ccc(N2C(=O)c3ccccc3C2=O)cc1', 'inhibition at 100 µM', '2.8%'),
  ('O=C(N/N=C/c1ccc(Oc2no[n+]([O-])c2S(=O)(=O)c2ccccc2)cc1)c1ccc(N2C(=O)c3ccccc3C2=O)cc1', 'inhibition at 100 µM', '76.1%');
